// values below are reported apparent KD of MS2 coat protein
test system: MS2 coat protein; assay: apparent KD of MS2 coat protein; designed switch direction (-1 OFF switch, 1 ON switch): 1; higher = weaker reporter binding; details: input ligand: FMN 200 uM

sequence.chain	apparent KD of MS2 coat protein
AGCCGAGACUGAGGAUAUUUGUAUCUACAUGAGGAUCACCCAUGUAGCGUCACGUGGUAGUGAUCGAAGAAGGCAGCUCGGCGC [MOD3 of Omei's SS(NG)2 Cv2] (Eterna round: R96, puzzle: Same State NG 2)	11.1 nM
GGACGUCAUCUCAAUGAUUAAACAUGAGGAUCACCCAUGUCACAGGAUAUGGAUCCUAAUUGGAUCCAGAAGGGUGUGACGUCC [Fiskers NG3ss - 44] (Eterna round: R96, puzzle: Same State NG 3)	121 nM
GCGAAGAGGUAAGGAUAUGCAUGGCGGAGACAUGAGGAUCACCCAUGUUGGAGACGAAAUCUAGGGUAGAAGGUACCAGGAAGC [AK SSNG2-V2-12] (Eterna round: R96, puzzle: Same State NG 2)	61.9 nM
GGAUGAUUAACAGGAUAUCAUUUGUAAAUUCGAUGAGAAGGGUUGAUUACUUACACGACGUGUUACAUGAGGAUCACCCAUGUU [SameState NG1 #6] (Eterna round: R96, puzzle: Same State NG 1)	372 nM

---

system: MS2 coat protein; assay: apparent KD of MS2 coat protein; designed switch direction (-1 OFF switch, 1 ON switch): 1; higher = weaker reporter binding; settings: input ligand: none
Recorded apparent KD of MS2 coat protein for the following sequences
quantity.name: apparent KD of MS2 coat protein (µM)

sequence.chain	quantity.name	unit.tag	measurement
AAAAGACAAAGAAAACAUGAGGAUCACCCAUGUGGCGUGACACAGGAUAUCCACGCUACAUUGCAGGAGAAGGGUGACAUGCAC [Ensora] (Eterna round: R96, puzzle: Same State NG 3)	apparent KD of MS2 coat protein	µM	0.383
GGAAUAUUUACAGGAUAUGAGUUGUAAAGUCGAUCAGAAGGGUAGGUGUUUUGCACGGUGUGUUACAUGAGGAUCACCCAUGUU [SameState NG1 #22] (Eterna round: R96, puzzle: Same State NG 1)	apparent KD of MS2 coat protein	µM	0.123
GGUAUUAACACAGGAUAUGCUUACGAAACGUAAGCAGAAGGGUGAACAUGAGGAUCACCCAUGUUUGUACCAGGGCGUGAGCCC [JL SSNG1 1.72] (Eterna round: R96, puzzle: Same State NG 1)	apparent KD of MS2 coat protein	µM	0.923

---

tested on: K4 kissing-loop RNA reporter; assay: apparent KD of K4 kissing-loop reporter; higher = weaker reporter binding; settings: Eterna round: R107; input ligand: FMN 200 uM;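 note: bound reporter read as fluorescence of individual clusters on recovered sequencing chips by microscopy, with normalized cluster intensities fitted with a binding model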
quantity.name: apparent KD of K4 kissing-loop reporter (nM)

sequence.chain	unit.tag	measurement
AACGGCCAGUCGGCCGCCACUCGAUGCAGUGAUGUUGCUAACUUUCUAAAAGAGUGAUGUUCAUGGAGGACCGGGACUAGUGUAA [#30 K4 Tryptophan B Exclusion]	nM	317
UCUGGUAUAUCUGAUACCAGAGAAUAGAAUCAAUUGAAUAUGGAGUGAUGUUCCAUAAAACUCCCUUGGCAGCAGAUAAUCAUAU [Same State Theophylline B GF 22]	nM	113
GGCGGCUGCGCGCAAGCGCAGCCGGCCGAUACCAGCGCGACGGCGCGCCCUUGGCAGCGGCGCCGAGUGAUGUUCGGCCUGCCGG [#2 Same State - Theophylline A Attempt #19 (HarryS)]	nM	433
UAUCGAGUGAUGUUCGAUGUAGUCCAUUCAGAGGAUAUAGGAUUGACUAGAAGGCUGAAACCUUCUUCGAGUGAUGUUCGAGGAU [Same State FMN A GF4]	nM	92.5
UUGAUAUGAUAGUAUCUUGUUUGAUAAAGGCAGGAUAUCGUAUAUUUGAGAAGGGCCAUUAUAUGCAGUGAUGUUGCAAAUAAGU [Exclusion FMN A Gf 25]	nM	43.5
UUGUGCAGCAAUCGAGUGAUGUUCGACGAUACCAGCCUCGAUAGAGGCCCUUGGCAGCGUAUCAUCACAUGCCAAGAGCUGCACU [#SwitchBubble 5]	nM	530

Reference for the values: the supplement of paper PMC9170038
